# Study Target: Human GPR40 (Homo sapiens, UniProt O14842)
# Sequence (O14842 whole entry): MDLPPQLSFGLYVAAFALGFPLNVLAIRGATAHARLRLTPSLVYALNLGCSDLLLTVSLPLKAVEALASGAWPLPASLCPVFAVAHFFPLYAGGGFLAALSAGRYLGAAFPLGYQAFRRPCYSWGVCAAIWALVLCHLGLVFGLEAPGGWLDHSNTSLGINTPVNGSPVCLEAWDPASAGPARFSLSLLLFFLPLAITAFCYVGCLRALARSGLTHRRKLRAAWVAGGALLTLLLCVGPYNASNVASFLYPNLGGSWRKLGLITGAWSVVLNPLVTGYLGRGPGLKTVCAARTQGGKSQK
# Assay Text: Inositol Phosphate Turnover Assay 1 (HEK cells stably expressing human GPR40)
# Assay type: cell-based
# Design: expressed in transfected cells; host or cells: HEK cells stably expressing the aequorin reporter
# Measurement Conditions: HEK cells stably expressing human GPR40, 96-well, 3H-inositol; read-out: Human GPR40 IP1 Assay 1, EC50
# Description: Human and mouse GPR40 stable cell-lines were generated in CHO cells stably expressing NFAT BLA (Beta-lactamase). A human GPR40 stable cell-line was generated in HEK cells stably expressing the aequorin expressing reporter. The expression plasmids were transfected using lipofectamine (Life Technologies) following manufacturer's instructions. […] The assay was typically run the next day after 18 h labeling. […] Beads were allowed to settle and the plates were counted in the Wallac Microbeta.
Reported Endpoint: pEC50
Hey, just a heads up that pEC50 is the negative log base 10 of the concentration in molar.

Some entries whose results are on file:
- CC1(O)CCN(c2ccc(-c3cc(COc4cc5c(cn4)[C@H]4[C@@H](C5)[C@@H]4C(=O)O)c(F)cc3C(F)(F)F)c(F)c2)CC1 [Compound-11]: 8.17
- O=C(O)[C@H]1[C@@H]2Cc3cc(OCc4cc(-c5ccc(-c6ccc(Cl)cc6F)cc5F)c(C(F)(F)F)cc4F)ncc3[C@@H]21 [Compound-8]: 7.20
- Cn1nnc(-c2ccc(-c3cc(COc4cc5c(cn4)[C@H]4[C@@H](C5)[C@@H]4C(=O)O)c(F)cc3C(F)(F)F)c(F)c2)n1 [Compound-7]: 8.47
- C[C@]1(O)C[C@@H](COc2c(F)cc(-c3cc(COc4cc5c(cn4)[C@H]4[C@@H](C5)[C@@H]4C(=O)O)c(F)cc3C(F)(F)F)cc2F)C1 [Compound-2]: 8.16
- Cc1cc(O[C@H]2C[C@H](S(C)(=O)=O)C2)cc(C)c1-c1cc(COc2cc3c(cn2)[C@H]2[C@@H](C3)[C@@H]2C(=O)O)c(F)cc1F [Compound-15]: 8.17

Proceed to the following item.
Give a short answer stating reported pEC50 for CC(C)(O)Cn1cc2c(n1)CN(c1ccc(-c3cc(COc4cc5c(cn4)[C@H]4[C@@H](C5)[C@@H]4C(=O)O)c(F)cc3C(F)(F)F)c(F)c1)C2 [Compound-13] .
7.82

* * *

Listing of entries alongside the reported EC50.
# Study Target: Human GPR40 (Homo sapiens)
# Assay Text: FLIPR assay (agonist-induced calcium mobilization, GPR40/CHO NFAT BLA cells)
# Format: cell-based
# Set-up: expressed in transfected cells
Provide only the numeric value, understood in nM.

Previously resolved entries follow.
• CS(=O)(=O)N1CCC(c2ccc(-c3cc(COc4cc5c(cn4)[C@H]4[C@@H](C5)[C@@H]4C(=O)O)c(F)cc3C(F)(F)F)cc2)CC1 = 4.2
• CC(C)(O)Cn1cc2c(n1)CN(c1ccc(-c3cc(COc4cc5c(cn4)[C@H]4[C@@H](C5)[C@@H]4C(=O)O)c(F)cc3C(F)(F)F)c(F)c1)C2 = 6.7

We now examine a further compound.
Please tell me the measured EC50 for O=C(O)[C@H]1[C@@H]2Cc3cc(OCc4cc(-c5ccc(-c6ccc(Cl)cc6F)cc5F)c(C(F)(F)F)cc4F)ncc3[C@@H]21 ; system: Human GPR40 (Homo sapiens).
12

* * *

EC50 overview
# Study Target: Human GPR40 (Homo sapiens)
# Assay Text: Inositol Phosphate Turnover (IP1) Assay 2 (HEK cells stably expressing human GPR40, CisBio IP-One kit)
# Type: cell-based
# Parameters: expressed in transfected cells; host or cells: HEK cells stably expressing the aequorin reporter
# Measurement Conditions: HEK cells stably expressing human GPR40, 384-well
Answer format: numeric, nM implied, no suffix.

Known results for compounds:
• Cc1nc(N2Cc3cn(CC(C)(C)O)nc3C2)ccc1-c1cc(COc2cc3c(cn2)[C@H]2[C@@H](C3)[C@@H]2C(=O)O)c(F)cc1C(F)(F)F = 1
• Cc1cc(-c2nnn(CC(C)(C)O)n2)cc(C)c1-c1cc(COc2cc3c(cn2)[C@H]2[C@@H](C3)[C@@H]2C(=O)O)c(F)cc1F = 1

Tell me measured EC50 for Cc1cc(OC2CC(C(C)(O)CO)C2)cc(C)c1-c1cc(COc2cc3c(cn2)C2C(C3)C2C(=O)O)c(F)cc1F (single isomer, unassigned) [Compound-22] please.
0.7

Answer with the recorded EC50 of Cc1cc(OC[C@H]2C[C@](C)(O)[C@](C)(O)C2)cc(C)c1-c1cc(COc2cc3c(cn2)[C@H]2[C@@H](C3)[C@@H]2C(=O)O)c(F)cc1F only.
3.1

Look up and report measured EC50 for this entry: O=C(O)[C@H]1[C@@H]2Cc3cc(OCc4cc(-c5ccc(OC[C@H]6C[C@@](O)(CO)C6)cc5Cl)c(F)cc4F)ncc3[C@@H]21 (single isomer, unassigned)
1

* * *

# Study Target: Human GPR40 (Homo sapiens, UniProt O14842)
# Assay Text: Inositol Phosphate Turnover Assay 1 (HEK cells stably expressing human GPR40)
# Format: cell-based
# Set-up: expressed in transfected cells; host or cells: HEK cells stably expressing the aequorin reporter
# Measurement Conditions: HEK cells stably expressing human GPR40, 96-well, 3H-inositol; read-out: Human GPR40 IP1 Assay 1, EC50
Reported Endpoint: EC50 (nM)
The figure you give is taken to be in nM; do not add the unit.

* O=C(O)[C@H]1[C@@H]2Cc3cc(OCc4cc(-c5ccc(C6CCN(S(=O)(=O)C7CC7)CC6)cc5)c(C(F)(F)F)cc4F)ncc3[C@@H]21 [Compound-6] | 47

Give reported EC50 value for N#Cc1ccc(-c2ccc(-c3cc(COc4cc5c(cn4)[C@H]4[C@@H](C5)[C@@H]4C(=O)O)c(F)cc3C(F)(F)F)cc2)cc1 [Compound-9]
8.9

Return value of EC50 for input Cc1nc(OC[C@H]2C[C@@](C)(O)C2)ccc1-c1cc(COc2cc3c(cn2)[C@H]2[C@@H](C3)[C@@H]2C(=O)O)c(F)cc1C(F)(F)F [Compound-14] , no commentary.
6.3

Return reported EC50. Input molecule: Cc1cc(-c2nnn(CC(C)(C)O)n2)cc(C)c1-c1cc(COc2cc3c(cn2)[C@H]2[C@@H](C3)[C@@H]2C(=O)O)c(F)cc1F [Compound-16]
9.4

Identify EC50 associated with the molecule CC(C)(O)C1CCN(c2ccc(-c3cc(COc4cc5c(cn4)[C@H]4[C@@H](C5)[C@@H]4C(=O)O)c(F)cc3C(F)(F)F)c(F)c2)CC1 [Compound-12]
20

* * *

# Study Target: Human GPR40 (Homo sapiens, UniProt O14842)
# Assay Text: FLIPR assay (agonist-induced calcium mobilization, GPR40/CHO NFAT BLA cells)
# Format: cell-based
# Parameters: expressed in transfected cells
Reported Endpoint: EC50 (nM)
Quick reminder: number only, in nM, skip the unit.

Input CC(C)(O)C1CCN(c2ccc(-c3cc(COc4cc5c(cn4)[C@H]4[C@@H](C5)[C@@H]4C(=O)O)c(F)cc3C(F)(F)F)c(F)c2)CC1 [Compound-12] , output reported EC50.
6.1

Indicate the recorded EC50 value for this compound: O=C(O)[C@H]1[C@@H]2Cc3cc(OCc4cc(-c5ccc(C6CCN(S(=O)(=O)C7CC7)CC6)cc5)c(C(F)(F)F)cc4F)ncc3[C@@H]21 [Compound-6]
4.2

Identify the reported EC50 for the following entry. C[C@]1(O)C[C@@H](COc2c(F)cc(-c3cc(COc4cc5c(cn4)[C@H]4[C@@H](C5)[C@@H]4C(=O)O)c(F)cc3C(F)(F)F)cc2F)C1 [Compound-2]
5.8

Give the reported value of EC50 for this record: C[C@]1(O)CC[C@H](Oc2c(F)cc(-c3cc(COc4cc5c(cn4)[C@H]4[C@@H](C5)[C@@H]4C(=O)O)c(F)cc3C(F)(F)F)cc2F)CC1 [Compound-3]
3.7

Supply measured EC50 of CS(=O)(=O)N1CC2(CN(c3ccc(-c4cc(COc5cc6c(cn5)[C@H]5[C@@H](C6)[C@@H]5C(=O)O)c(F)cc4C(F)(F)F)c(F)c3)C2)C1 [Compound-4] in your reply.
10

Supply measured EC50 of Cn1nnc(-c2ccc(-c3cc(COc4cc5c(cn4)[C@H]4[C@@H](C5)[C@@H]4C(=O)O)c(F)cc3C(F)(F)F)c(F)c2)n1 [Compound-7] in your reply.
6.7

Give recorded EC50. C[C@]1(O)C[C@@H](COc2ccc(-c3cc(COc4cc5c(cn4)[C@H]4[C@@H](C5)[C@@H]4C(=O)O)c(F)cc3C(F)(F)F)cc2F)C1 [Compound-1]
7

// Input: CC1(O)CCN(c2ccc(-c3cc(COc4cc5c(cn4)[C@H]4[C@@H](C5)[C@@H]4C(=O)O)c(F)cc3C(F)(F)F)c(F)c2)CC1 [Compound-11] . Output its EC50 only.
5.6
